Target: Adenosine receptor A2a (Homo sapiens, UniProt P29274)
Sequence (P29274 whole entry, the tested form may be a part): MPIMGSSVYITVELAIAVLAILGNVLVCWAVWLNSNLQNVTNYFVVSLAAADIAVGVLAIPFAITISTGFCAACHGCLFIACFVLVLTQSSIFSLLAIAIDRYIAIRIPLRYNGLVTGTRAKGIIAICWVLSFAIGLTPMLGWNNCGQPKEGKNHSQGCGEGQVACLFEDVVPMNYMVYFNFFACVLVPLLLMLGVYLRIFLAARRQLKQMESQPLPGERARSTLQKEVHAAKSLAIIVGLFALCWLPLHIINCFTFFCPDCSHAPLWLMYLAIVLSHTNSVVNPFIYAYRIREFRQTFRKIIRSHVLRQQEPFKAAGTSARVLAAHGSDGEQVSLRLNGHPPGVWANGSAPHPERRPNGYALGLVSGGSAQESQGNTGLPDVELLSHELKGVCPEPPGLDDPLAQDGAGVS
Experiment: Photoaffinity labelling of purified human A2AR (1 to 316 residues) by SDS-PAGE analaysis
pEC50: −log10 of the molar value.

molecule-smiles: C#CCN(CCCCCNc1nc(N)n2nc(-c3ccco3)nc2n1)C(=O)c1ccc(S(=O)(=O)F)cc1
pEC50: 6.10

* * *

Target: Adenosine receptor A2a (Homo sapiens, UniProt P29274)
Test: Potency shift, difference in pKi for displacement of [3H]ZM241385 human A2AR (1 to 316 residues) expressed in Pichia pastoris SMD1168 cell membranes incubated for 0.5 hrs to pKi for displacement of [3H]ZM241385 human A2AR (1 to 316 residues) expressed in Pichia pastoris SMD1168 cell membranes incubated for 3 hrs
parameter-measured: fold change (FC)

molecule-smiles: Nc1nc(NCCCCNC(=O)c2ccc(S(=O)(=O)F)cc2)nc2nc(-c3ccco3)nn12
reported-measurement: 0.85
//
molecule-smiles: Nc1nc(NCCCNC(=O)c2ccc(S(=O)(=O)F)cc2)nc2nc(-c3ccco3)nn12
reported-measurement: 0.72
//
molecule-smiles: Nc1nc(NCCCCCNC(=O)c2ccc(S(=O)(=O)F)cc2)nc2nc(-c3ccco3)nn12
reported-measurement: 0.65
//
molecule-smiles: C#CCN(CCCCCNc1nc(N)n2nc(-c3ccco3)nc2n1)C(=O)c1ccc(S(=O)(=O)F)cc1
reported-measurement: 0.41

* * *

pKi: −log10 of the molar value.
These molecules were tested on Adenosine receptor A2a (Homo sapiens); pKi is the recorded read-out.

molecule-smiles: C#CCN(CCCCCNc1nc(N)n2nc(-c3ccco3)nc2n1)C(=O)c1ccc(S(=O)(=O)F)cc1
pKi: 8.41
--
molecule-smiles: Nc1nc(NCCCCNC(=O)c2ccc(S(=O)(=O)F)cc2)nc2nc(-c3ccco3)nn12
pKi: 8.20
--
molecule-smiles: Nc1nc(NCCCCCNC(=O)c2ccc(S(=O)(=O)F)cc2)nc2nc(-c3ccco3)nn12
pKi: 8.56
--
molecule-smiles: Nc1nc(NCCCNC(=O)c2ccc(S(=O)(=O)F)cc2)nc2nc(-c3ccco3)nn12
pKi: 8.27
